- Test system: HCT-15 colon
- ASSAY_NAME: NCI tumour cell line growth inhibition, 48 h; in the data active means GI50 below about 0.43 µM; inactive means the rest
Entry note: the call must match one of class 1 = active, class 0 = inactive

{"columns": ["COMPOUND", "ASSIGNED_CATEGORY"],
 "data": [
  ["COc1cccc2cc(N(C)c3nc(C)nc4ccsc34)ccc12", "class 1"]
]}

Just curious, what result did COc1ccc(-c2cc3nccn3c(Nc3ncccc3C(N)=O)n2)cc1OC get here? class 0

Just curious, what result did CN1CCN(c2ccc([N+](=O)[O-])c3no[n+]([O-])c23)CC1 get here? class 1

Just curious, what result did c1cc(-c2cnn3nc(N4CCOCC4)ccc23)nc(NC2CC2)n1 get here? class 0

Just curious, what result did Cc1sc2c(c1C)C(c1ccc(Cl)cc1)=N[C@@H](CC(=O)Nc1ccc(O)cc1)c1nnc(C)n1-2 get here? class 0

Just curious, what result did COC(=O)C1=C2CO[C@@H]3C[C@H]4C(C)(C)CCC[C@]4(C)C(=CC1)[C@]23C get here? class 0

Just curious, what result did CN(C)S(=O)(=O)c1cccc(-c2nc3sc4c(c3c(=O)[nH]2)CCCC4)c1 get here? class 0

Just curious, what result did CO[C@H]1/C=C/C[C@H](C)[C@@H](C)S(=O)(=O)NC(=O)c2ccc3c(c2)N(C[C@@H]2CC[C@H]21)C[C@@]1(CCCc2cc(Cl)ccc21)CO3 get here? class 0

* * *

- System: SF-268 CNS
- ASSAY_NAME: NCI tumour cell line growth inhibition, 48 h
Where a SMILES comes first, the peptide text is derived from it. Side-chain parts run from the residue outwards. The star is where a group is joined. Cbz = O=C(OCc1ccccc1)*; Boc = CC(C)(C)OC(=O)*
MEASURED_ATTRIBUTE: TGI

{"columns": ["COMPOUND", "SYSTEM_UNDER_TEST", "MEASURED_ATTRIBUTE", "RECORDED_MEASUREMENT"],
 "data": [
  ["Nc1n[n+]([O-])c2cnccc2[n+]1[O-]", "SF-268 CNS", "TGI", "> 100 µM"],
  ["C/C(CC(=O)Nc1ccc(NC(=O)/C(C)=N/NS(=O)(=O)c2ccc(C)cc2)cc1)=N\\NS(=O)(=O)c1ccc(C)cc1", "SF-268 CNS", "TGI", "> 100 µM"],
  ["O=C(Cc1nc2ccccc2s1)C(=O)Nc1ccc(Cl)cc1Cl", "SF-268 CNS", "TGI", "> 100 µM"],
  ["NCCCn1c2c(c3ccc([N+](=O)[O-])cc3c1=O)C(=O)c1cc(Cl)ccc1-2", "SF-268 CNS", "TGI", "0.391 µM"],
  ["OC(C1CCCC1=N/N=C1/CCCC1C(O)(C(F)(F)Cl)C(F)(F)Cl)(C(F)(F)Cl)C(F)(F)Cl (stereo unspecified)", "SF-268 CNS", "TGI", "> 10 µM"]
]}

Please turn your attention to the following entry.
SF-268 CNS / TGI / CC(C)CC(NC(=O)OCc1ccccc1)C(=O)NCCCCC(NC(=O)C(CCCCNC(=O)C(CC(C)C)NC(=O)OCc1ccccc1)NC(=O)C(CCCCNC(=O)C(CC(C)C)NC(=O)OCc1ccccc1)NC(=O)C(CCCCNC(=O)C(CC(C)C)NC(=O)OCc1ccccc1)NC(=O)OC(C)(C)C)C(=O)O (stereo unspecified) (Boc-K([Leu-Cbz])K([Leu-Cbz])K([Leu-Cbz])K([Leu-Cbz])-OH; configuration not given here) : value? > 25 µM

These measurements were taken from PubChem BioAssay (NCI).
